- MEASUREMENT_TARGET: Protein Nef/Tyrosine-protein kinase HCK (Homo sapiens, UniProt P03406+P08631)
- Sequence (P08631 whole entry, other chains not shown): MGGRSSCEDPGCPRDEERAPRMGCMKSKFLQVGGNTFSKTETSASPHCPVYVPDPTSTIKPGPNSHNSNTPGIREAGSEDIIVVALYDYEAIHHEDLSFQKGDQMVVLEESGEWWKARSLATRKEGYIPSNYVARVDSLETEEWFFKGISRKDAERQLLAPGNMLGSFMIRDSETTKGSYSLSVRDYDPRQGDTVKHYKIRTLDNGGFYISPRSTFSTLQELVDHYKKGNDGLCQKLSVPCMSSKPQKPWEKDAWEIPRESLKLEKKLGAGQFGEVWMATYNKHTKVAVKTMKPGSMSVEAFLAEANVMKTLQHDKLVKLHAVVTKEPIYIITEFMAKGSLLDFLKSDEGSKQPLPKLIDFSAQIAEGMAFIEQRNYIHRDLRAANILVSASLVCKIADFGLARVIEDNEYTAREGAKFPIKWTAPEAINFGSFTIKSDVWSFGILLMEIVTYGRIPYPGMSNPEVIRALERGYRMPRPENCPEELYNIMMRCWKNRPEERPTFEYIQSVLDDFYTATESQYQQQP
- MEASUREMENT_DESCRIPTION: In Vitro Kinase Assay
- CONDITION: 25 °C
- From the text: In vitro kinase activity of Nef-Hck complex and Hck alone using Z'-lyte kinase assay system and Tyr2 peptide substrate from Invitrogen.
MEASURE: pIC50
By convention, pIC50 is the negative base-10 log of a molar concentration.

Solved cases below.
>>> value("OCCCCNc1ncnc2oc(-c3ccccc3)c(-c3ccccc3)c12 [DFP-4AB]")
4.80
>>> value("OCCCNc1ncnc2oc(-c3ccccc3)c(-c3ccccc3)c12 [DFP-4AP]")
5.29

Here's the next entry for you.
Query string: Query: pIC50; subject: c1ccc(-c2oc3ncnc(NCCCc4ccco4)c3c2-c2ccccc2)cc1 [DFP-4APF]
Result string: 5.70

---

Notes on IC50 obtained with UniProt P08631.

Solved cases below.
>>> value("OCCCCNc1ncnc2oc(-c3ccccc3)c(-c3ccccc3)c12")
"> 30 µM"
>>> value("OCCCNc1ncnc2oc(-c3ccccc3)c(-c3ccccc3)c12")
"12.8 µM"
>>> value("Nc1ncnc2oc(-c3ccccc3)c(-c3ccccc3)c12")
"> 30 µM"

Here's the next entry for you.
Query string: # returns recorded IC50 (system: UniProt P08631) for c1ccc(-c2oc3ncnc(NCCCc4ccco4)c3c2-c2ccccc2)cc1
Result string: > 30 µM

All values here come from BindingDB's records for doi:10.1021/cb900195c.
